study target: Cyclin-dependent kinase 9 (Homo sapiens)
Sequence (P50750 whole entry): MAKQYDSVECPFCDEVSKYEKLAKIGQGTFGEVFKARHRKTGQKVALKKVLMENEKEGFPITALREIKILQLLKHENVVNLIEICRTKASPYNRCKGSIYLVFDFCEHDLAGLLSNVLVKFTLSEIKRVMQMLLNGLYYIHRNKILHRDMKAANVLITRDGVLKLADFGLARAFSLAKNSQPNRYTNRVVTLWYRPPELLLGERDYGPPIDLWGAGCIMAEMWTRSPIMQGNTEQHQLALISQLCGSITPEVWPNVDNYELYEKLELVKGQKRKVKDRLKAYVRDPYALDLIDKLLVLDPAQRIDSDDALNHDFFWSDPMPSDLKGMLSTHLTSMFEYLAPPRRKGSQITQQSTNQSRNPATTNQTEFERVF
pIC50: −log10 of the molar value.
measurement label: pIC50

pIC50 for FC(F)(F)CNc1nc(Nc2ccc(N3CCOCC3)c(Cl)c2)nc2ccoc12 is < 5.00

* * *

Entries below carry reported IC50 on Tyrosine-protein kinase SYK (Homo sapiens).
Express your answer in nM, writing the number without its unit.

IC50 for FC(F)(F)CNc1nc(Nc2ccc(N3CCOCC3)c(Cl)c2)nc2ccoc12 is 61

IC50 for CCCNC(=O)c1ccc(Nc2nc(NCC(F)(F)F)c3cc[nH]c3n2)cc1 is 17

IC50 for FC(F)(F)CNc1nc(Nc2ccc3cn[nH]c3c2)nc2ccoc12 is 81
